target: DNA gyrase (Escherichia coli) (UniProt P0AES6+P0AES4)
assay.info: In vitro antibacterial activity against gram-negative organism Prov. stuartii CMX-640
Assay type: functional
conditions.used: Providencia stuartii
parameter: log10 of MIC (log10 of the value in µg/mL)

compound: Cc1c(N2C[C@@H](C)N[C@@H](C)C2)c(F)cn2c(=O)c(C(=O)O)cc(C3CC3)c12
obs.value: 0.49
//
compound: Cc1c(N2CC[C@@]3(C[C@H]3N)C2)c(F)cn2c(=O)c(C(=O)O)cc(C3CC3)c12
obs.value: -0.11
//
compound: Cc1c(N2C[C@@H]3C[C@H]2CN3)c(F)cn2c(=O)c(C(=O)O)cc(C3CC3)c12
obs.value: -0.11
//
compound: Cc1c(N2CCC(N)C2)c(F)cn2c(=O)c(C(=O)O)cc(C3CC3)c12 (stereo not given)
obs.value: -0.70
//
compound: Cc1c(N2C[C@@H]3CCN[C@@H]3C2)c(F)cn2c(=O)c(C(=O)O)cc(C3CC3)c12 (stereo in doubt; 45o)
obs.value: -0.11
//
compound: Cc1c(N2CC(N)C2)c(F)cn2c(=O)c(C(=O)O)cc(C3CC3)c12
obs.value: 0.19
//
compound: C[C@H]1C[C@H](N)CN1c1nc2c(-c3ccc(F)cc3F)cc(C(=O)O)c(=O)n2cc1F
obs.value: 0.79
//
compound: Cc1c(N2CC[C@@H]([C@H](C)N)C2)c(F)cn2c(=O)c(C(=O)O)cc(C3CC3)c12
obs.value: -0.70
//
compound: Cc1c(N2C[C@@H]3CCCN[C@@H]3C2)c(F)cn2c(=O)c(C(=O)O)cc(C3CC3)c12 (stereo in doubt; (S,S)45n)
obs.value: -0.41
//
compound: Cc1c(N2C[C@H]3CCC[C@H](N)[C@H]3C2)c(F)cn2c(=O)c(C(=O)O)cc(C3CC3)c12
obs.value: -0.11
//
compound: Cc1c(N2CCC(N)C2)c(F)cn2c(=O)c(/C(O)=C/[N+](=O)[O-])cc(C3CC3)c12 (stereo not given)
obs.value: 0.19
//
compound: Cc1c(N(C)CCN)c(F)cn2c(=O)c(C(=O)O)cc(C3CC3)c12
obs.value: 1.40
//
compound: Cc1c(N2CC[C@H]([C@@H](C)N)C2)c(F)cn2c(=O)c(C(=O)O)cc(C3CC3)c12
obs.value: -0.41
//
compound: CCc1cc(C(=O)O)c(=O)n2cc(F)c(N3CCC(N)C3)c(C)c12 (stereo not given)
obs.value: -0.11
//
compound: Cc1c(N2C[C@H]3CCN[C@H]3C2)c(F)cn2c(=O)c(C(=O)O)cc(C3CC3)c12 (single isomer, unassigned)
obs.value: -0.41
//
compound: NC1CCN(c2nc3c(-c4ccc(F)cc4F)cc(C(=O)O)c(=O)n3cc2F)C1 (stereo not given)
obs.value: 0.19
//
compound: CN1CCN(c2nc3c(C4CC4)cc(C(=O)O)c(=O)n3cc2F)CC1
obs.value: 1.70
